Reported inhibition at 10 µM values follow for various compounds
TEST_SYSTEM: IGF-1R (Homo sapiens, UniProt P08069)
Construct: purchased Upstate Co. 14-465
Sequence (P08069 959-1367 limits assumed): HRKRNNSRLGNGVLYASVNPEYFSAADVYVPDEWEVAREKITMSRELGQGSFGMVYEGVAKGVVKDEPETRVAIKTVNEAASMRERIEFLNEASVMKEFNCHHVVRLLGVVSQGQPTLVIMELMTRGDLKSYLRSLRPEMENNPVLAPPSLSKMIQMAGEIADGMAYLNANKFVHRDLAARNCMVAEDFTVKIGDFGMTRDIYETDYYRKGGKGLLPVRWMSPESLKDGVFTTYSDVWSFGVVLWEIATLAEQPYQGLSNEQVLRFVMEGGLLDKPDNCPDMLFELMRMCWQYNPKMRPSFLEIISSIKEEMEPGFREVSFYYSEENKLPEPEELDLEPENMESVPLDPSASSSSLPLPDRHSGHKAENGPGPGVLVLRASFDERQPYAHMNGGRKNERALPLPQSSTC
ASSAY_NAME: IGF-1R inhibitory activity (kinase reaction, time-resolved fluoroimmunoassay)
Format: biochemical
EXPERIMENTAL_CONTEXT: IGF-1R active recombinant enzyme, test compound 10 μmol/L
Your answer should be a plain number; it is taken to be in %.

For orientation, consider the following solved cases.
Cc1ccsc1C(=O)Nc1cc(CN2CCN(S(C)(=O)=O)CC2)ccc1/C=C/c1n[nH]c2ccccc12
101
Nc1cccc2c1CN(c1ccccc1/C=C/c1n[nH]c3ccccc13)C2=O
96.5
O=C(Nc1ccccc1/C=C/c1n[nH]c2ccccc12)c1cc2sccc2s1
98.3

Next compound, inhibition at 10 µM to be filled in.
# input Please state recorded inhibition at 10 µM (tested on IGF-1R (Homo sapiens, UniProt P08069)) of "COCCCN(CCO)C(=O)c1ccc(/C=C/c2n[nH]c3ccccc23)c(NC(=O)c2sccc2C)c1"
# output 100

###

TEST_SYSTEM: IGF-1R (Homo sapiens)
Construct: purchased Upstate Co. 14-465
ASSAY_NAME: IGF-1R inhibitory activity (kinase reaction, time-resolved fluoroimmunoassay)
Type: biochemical
EXPERIMENTAL_CONTEXT: IGF-1R active recombinant enzyme, test compound 10 μmol/L
Where a name gives a salt, the structure may show the parent alone.
METRIC: inhibition at 10 µM (%)
# output: bare number, implied unit %

# example entries with known answers
Cc1ccsc1C(=O)Nc1cc(C(=O)N2CCN(S(C)(=O)=O)CC2)ccc1/C=C/c1n[nH]c2ccccc12 [Compound 222, hydrochloride]
98.7
Cc1ccsc1C(=O)Nc1cc(CN2CCN(CC(C)(C)O)CC2)ccc1/C=C/c1n[nH]c2ccccc12 [Compound 312]
105
Cc1cc(C(=O)Nc2ccccc2/C=C/c2n[nH]c3ccccc23)c(C(F)(F)F)o1 [Compound 59]
86.3

# input Would you kindly share the measured inhibition at 10 µM for Cc1ccsc1C(=O)Nc1ccc(N2CCOCC2)cc1/C=C/c1n[nH]c2ccccc12 [Compound 225, hydrochloride] ?
# output 95

###

TEST_SYSTEM: IGF-1R (Homo sapiens, UniProt P08069)
Construct: purchased Upstate Co. 14-465
ASSAY_NAME: IGF-1R inhibitory activity (kinase reaction, time-resolved fluoroimmunoassay)
Type: biochemical
EXPERIMENTAL_CONTEXT: IGF-1R active recombinant enzyme, test compound 10 μmol/L
inhibition at 10 µM for assorted compounds
In your response, put the unit directly after the numeric value.

Below are worked cases with known answers.
Cc1ccsc1C(=O)Nc1cc(CN(CCO)CCN2CCOCC2)ccc1/C=C/c1n[nH]c2ccccc12 [Compound 253]
98.7%
Cc1ccsc1C(=O)Nc1cc(CN2CCN(CCOCCO)CC2)ccc1/C=C/c1n[nH]c2ccccc12 [Compound 318]
94.7%
COCCCN1CCN(Cc2ccc(/C=C/c3n[nH]c4ccccc34)c(N3Cc4c(N)cccc4C3=O)c2)CC1 [Compound 321]
101%
O=Cc1ccn(-c2ccccc2/C=C/c2n[nH]c3ccccc23)c1 [Compound 167]
94.1%
COCCN(C)C(=O)c1ccc(/C=C/c2n[nH]c3ccccc23)c(NC(=O)c2sccc2C)c1 [Compound 260]
102%
O=C(Nc1ccccc1/C=C/c1n[nH]c2ccccc12)c1ccc(F)cc1 [Compound 3]
99.1%

# input Give the reported inhibition at 10 µM for COc1c(OCCCN2CCC[C@H]2CO)ccc(/C=C/c2n[nH]c3ccccc23)c1NC(=O)c1sccc1C [Compound 340] (system: IGF-1R (Homo sapiens, UniProt P08069)).
# output 103%

# input Which measured inhibition at 10 µM belongs to Cc1ccc(C(=O)Nc2ccccc2/C=C/c2n[nH]c3ccccc23)s1 [Compound 40] , tested on IGF-1R (Homo sapiens, UniProt P08069)?
# output 98.8%

# input Test system IGF-1R (Homo sapiens, UniProt P08069); read-out inhibition at 10 µM; what value for Cc1ccsc1C(=O)Nc1cc(F)ccc1/C=C/c1n[nH]c2ccccc12 [Compound 265] ?
# output 98.4%

# input Item: O=C1c2ccc(Cl)cc2C(=O)N1c1ccccc1/C=C/c1n[nH]c2ccccc12 [Compound 196] Test system: IGF-1R (Homo sapiens, UniProt P08069) Read-out: inhibition at 10 µM Value: ?
# output 99.8%

# input API: value(readout=inhibition at 10 µM, system=IGF-1R (Homo sapiens, UniProt P08069)) for record CC(=O)c1ccc(C(=O)Nc2ccccc2/C=C/c2n[nH]c3ccccc23)s1 [Compound 43]
# output 96.3%

# input Can you look up inhibition at 10 µM on IGF-1R (Homo sapiens, UniProt P08069) for CN(C)c1cccc(C(=O)Nc2ccccc2/C=C/c2n[nH]c3ccccc23)c1 [Compound 27] ?
# output 99.3%

# input // lookup inhibition at 10 µM | system=IGF-1R (Homo sapiens, UniProt P08069) | key= CCN(CCO)CCCOc1ccc(/C=C/c2n[nH]c3ccccc23)c(NC(=O)c2sccc2C)c1OC [Compound 339]
# output 104%

# input API: value(readout=inhibition at 10 µM, system=IGF-1R (Homo sapiens, UniProt P08069)) for record C(=C\c1n[nH]c2ccccc12)/c1ccccc1NCc1ccccc1 [Compound 26]
# output 67.8%

# input GET /values?readout=inhibition at 10 µM&system=IGF-1R (Homo sapiens, UniProt P08069)&item= Nc1cccc2c1CN(c1cc(CN3CCN(CCCO)CC3)ccc1/C=C/c1n[nH]c3ccccc13)C2=O [Compound 314]
# output 102%
